- Tested on: INS-1 cells
- assayOverview: Insulin secretion assay in INS-1 cells (glucose at 4.2 mM)
- Assay type: cell-based
- particulars: Rattus norvegicus, INS1, glucose 4.2 mM, compound 50 μM, 1 h incubation, read-out: Insulin secretion, % of ctrl at 50 μM
Reported activity at 50 µM by item:
Give the quantity in %, number only.

Field: example entries. Status: answers known.
                               smilesstring  displayunit  quantitativeresult
0      CCn1ccnc(S(=O)(=O)Cc2ccc(Br)cc2)c1=O            %                 362
1      CCCn1ccnc(S(=O)(=O)Cc2ccc(F)cc2)c1=O            %                 203
2  CCn1cc(Cl)nc(S(=O)(=O)CC(=O)N2CCCCC2)c1=O            %                 213

Q: Find the recorded activity at 50 µM belonging to CCCCn1ccnc(S(=O)(=O)Cc2ccc(Cl)cc2)c1=O and report it.
Result: 261

Q: // lookup activity at 50 µM for CCCn1ccnc(S(=O)(=O)Cc2ccc(C)cc2)c1=O
Result: 207

Q: Give the measured activity at 50 µM of CCCCn1ccnc(S(=O)(=O)Cc2ccccc2F)c1=O .
Result: 236
